Biological target: Glucocorticoid receptor (Homo sapiens)
Sequence (P04150 whole entry): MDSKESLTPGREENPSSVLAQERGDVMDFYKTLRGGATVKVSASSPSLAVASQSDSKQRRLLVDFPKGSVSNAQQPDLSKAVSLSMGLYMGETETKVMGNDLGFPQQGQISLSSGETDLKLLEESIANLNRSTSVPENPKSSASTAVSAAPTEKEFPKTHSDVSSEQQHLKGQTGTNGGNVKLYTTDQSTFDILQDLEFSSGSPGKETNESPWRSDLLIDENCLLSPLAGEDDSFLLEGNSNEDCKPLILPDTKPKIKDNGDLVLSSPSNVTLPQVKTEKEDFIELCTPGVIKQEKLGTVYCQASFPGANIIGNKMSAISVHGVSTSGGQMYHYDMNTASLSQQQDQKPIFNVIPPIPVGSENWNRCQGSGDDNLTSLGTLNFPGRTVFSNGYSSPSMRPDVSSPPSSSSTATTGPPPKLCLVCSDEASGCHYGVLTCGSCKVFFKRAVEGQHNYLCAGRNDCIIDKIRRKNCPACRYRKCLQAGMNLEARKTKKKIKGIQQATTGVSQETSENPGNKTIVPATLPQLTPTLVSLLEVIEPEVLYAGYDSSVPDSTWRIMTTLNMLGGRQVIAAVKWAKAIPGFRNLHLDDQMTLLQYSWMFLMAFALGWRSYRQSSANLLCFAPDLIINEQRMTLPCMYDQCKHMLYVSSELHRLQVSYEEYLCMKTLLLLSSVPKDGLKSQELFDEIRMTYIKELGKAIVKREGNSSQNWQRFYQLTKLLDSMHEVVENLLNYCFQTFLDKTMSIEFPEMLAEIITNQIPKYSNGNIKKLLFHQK
pKi: −log10 of the molar value.
Here we gather pKi data for Glucocorticoid receptor (Homo sapiens) reported by several publications.
VALUE_KIND: pKi

Reference set (3 entries):
In [3]: df
Out[3]:
                                   compound  reading
0  COc1c(O)ccc2c1-c1ccc3c(c1/C(=C/c1ccc(OC(F)(F)F)cc1)O2)C(C)=CC(C)(C)N3     8.37
1  Cc1cc(-c2cccc3cc[nH]c23)c(/C=C/C#N)c2c1NC(C)(C)[C@H](O)[C@H]2C (racemic)     7.78
2  Cc1ccc(-c2ccc3c(n2)Oc2ccccc2[C@@H]3C(C)(C)C(=O)Nc2nncs2)cc1     8.60

[A] NC(=O)C[C@H]1COc2cc(F)c(C3CC3)cc2N1C(=O)c1ccc2c(c1)NC(=O)CO2
[B] COc1ccc2c(c1)-c1ccc3c(c1[C@H](c1ccccc1)O2)C(C)=CC(C)(C)N3
[Q] # argmax over pKi for candidates A and B Respond with the label that goes with your answer.
[A] A

[1] CC(C)(C(=O)Nc1nncs1)[C@H]1c2ccccc2Oc2nc(-c3ccc(C(=O)N4CCC(F)(F)C4)c(F)c3)ccc21
[2] CNC(=O)c1cccc(CC[C@]2(O)CCC3=Cc4c(cnn4-c4ccc(F)cc4)C[C@@]32C)c1
[Q] Looking at 1 and 2 , which one comes out lower in pKi terms? Write down the label of the entry you select.
[A] 2
(2: 7.82, 1: 8.60)

----------
Biological target: Glucocorticoid receptor (Homo sapiens, UniProt P04150)
Sequence (P04150 whole entry): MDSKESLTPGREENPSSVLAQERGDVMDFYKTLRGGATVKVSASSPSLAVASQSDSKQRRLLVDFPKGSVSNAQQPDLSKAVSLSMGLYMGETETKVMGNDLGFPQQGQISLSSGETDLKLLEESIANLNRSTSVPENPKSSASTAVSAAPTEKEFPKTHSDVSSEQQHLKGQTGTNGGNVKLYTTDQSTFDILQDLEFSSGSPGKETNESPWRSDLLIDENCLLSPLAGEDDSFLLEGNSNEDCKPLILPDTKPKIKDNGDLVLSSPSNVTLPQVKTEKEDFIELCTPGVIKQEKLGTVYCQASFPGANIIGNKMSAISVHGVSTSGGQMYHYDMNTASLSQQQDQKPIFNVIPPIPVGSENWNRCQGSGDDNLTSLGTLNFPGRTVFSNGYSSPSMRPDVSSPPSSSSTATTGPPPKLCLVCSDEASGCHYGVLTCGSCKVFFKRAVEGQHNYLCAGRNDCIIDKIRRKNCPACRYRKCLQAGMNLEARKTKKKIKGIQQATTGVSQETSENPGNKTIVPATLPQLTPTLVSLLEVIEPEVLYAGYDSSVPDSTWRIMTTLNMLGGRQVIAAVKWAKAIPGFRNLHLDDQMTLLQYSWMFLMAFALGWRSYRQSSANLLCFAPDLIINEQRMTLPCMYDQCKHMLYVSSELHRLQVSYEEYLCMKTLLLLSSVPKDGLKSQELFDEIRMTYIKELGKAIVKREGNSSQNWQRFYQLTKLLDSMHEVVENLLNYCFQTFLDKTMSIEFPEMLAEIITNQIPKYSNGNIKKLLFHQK
Values of Ki for Glucocorticoid receptor (Homo sapiens, UniProt P04150), collected from a number of published sources:
VALUE_KIND: Ki (nM)

Recorded results for 5 compounds are shown here.
>>> print(df.to_string())
                                   compound  value_kind  reading
0  C[C@H]1c2c(cc(F)c(-c3cccc4cc[nH]c34)c2F)NC(C)(C)[C@@H]1OC(=O)Nc1cccc(C#N)c1 (racemic)          Ki     13.7
1  CC(C)(C(=O)Nc1nccs1)C(c1ccccc1)c1ccn2cncc2c1 (centres undefined)          Ki       18
2  CNC(=O)CC1Oc2cccc(OC)c2-c2ccc3c(c21)C(C)=CC(C)(C)N3 (centres undefined)          Ki     3200
3  COc1ccc(C(c2ccccc2)c2c[nH]c3ccccc23)cc1 (centres undefined)          Ki     50.2
4  CC(C)(C(=O)Nc1nccs1)C(c1ccccc1)c1cc(-c2ccc(F)cc2)c2ncccc2c1 (centres undefined)          Ki      285

[I] C[C@@H]1C(=O)C(C)(C)Nc2ccc3c(c21)[C@H](c1ccccc1)Oc1ccccc1-3
[II] CC(C)(C(=O)Nc1nncs1)[C@H]1c2ccccc2Oc2nc(-c3ccc(C(=O)N4CCCCC4)cc3)ccc21
[Q] For I and II , which recorded Ki is lower? Give the label under which the chosen entry appears.
[A] II
(II: 1.3 nM, I: 249 nM)

----------
Target: Glucocorticoid receptor (Homo sapiens)
Sequence (P04150 whole entry): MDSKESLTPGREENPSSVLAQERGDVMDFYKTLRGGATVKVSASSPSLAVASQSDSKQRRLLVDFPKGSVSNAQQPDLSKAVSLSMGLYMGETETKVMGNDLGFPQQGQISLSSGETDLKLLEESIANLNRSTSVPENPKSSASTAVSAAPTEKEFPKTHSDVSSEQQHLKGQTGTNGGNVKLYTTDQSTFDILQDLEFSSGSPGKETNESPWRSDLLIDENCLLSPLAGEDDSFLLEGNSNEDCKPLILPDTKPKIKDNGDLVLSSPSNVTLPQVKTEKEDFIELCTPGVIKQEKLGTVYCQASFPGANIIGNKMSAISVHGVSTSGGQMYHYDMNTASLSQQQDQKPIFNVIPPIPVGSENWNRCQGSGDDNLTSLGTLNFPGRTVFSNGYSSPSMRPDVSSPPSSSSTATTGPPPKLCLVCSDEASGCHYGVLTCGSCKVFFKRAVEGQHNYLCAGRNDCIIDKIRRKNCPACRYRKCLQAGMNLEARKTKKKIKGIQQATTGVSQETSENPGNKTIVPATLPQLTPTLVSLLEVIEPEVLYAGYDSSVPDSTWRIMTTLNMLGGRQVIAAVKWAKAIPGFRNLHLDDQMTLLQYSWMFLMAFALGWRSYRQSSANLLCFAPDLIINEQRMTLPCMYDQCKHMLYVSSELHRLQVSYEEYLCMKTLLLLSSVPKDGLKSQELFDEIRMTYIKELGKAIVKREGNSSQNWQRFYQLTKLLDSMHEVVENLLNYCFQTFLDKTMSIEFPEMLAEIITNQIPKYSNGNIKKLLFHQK
// cross-source set; read-out = Ki; system = Glucocorticoid receptor (Homo sapiens)
VALUE_KIND: Ki (nM)

Below, 4 compounds whose answers are already recorded.
                                   compound  reading
0  C=CCC1Oc2ccccc2-c2ccc3c(c21)C(C)=CC(C)(C)N3 (stereo not given)      889
1  CC(C)(C(=O)Nc1nncs1)[C@@H](c1ccccc1)c1ccc2c(cnn2-c2ccc(F)cc2)c1      5.1
2  CC/C(=C1\c2ccccc2OCc2cccc(OC)c21)c1cccc(NS(C)(=O)=O)c1    0.268
3  Cc1cc(-c2cccc3cc[nH]c23)c(/C=N/OCc2ccccc2)c2c1NC(C)(C)[C@H](O)[C@H]2C (racemic)      3.5

[A] C[C@]12Cc3cnn(-c4ccc(F)cc4)c3C=C1CCCC2[C@@H](O)c1csc2ccccc12 (stereo not given in full)
[B] C[C@H]1c2c(cc(F)c(-c3cccc4cc[nH]c34)c2F)NC(C)(C)[C@@H]1OC(=O)N1CCCCC1 (racemic)
[C] CC(C)(C(=O)Nc1nccs1)C(c1ccccc1)c1ccc2c(-c3ccc(C#N)cc3)ncn2c1 (stereo not given)
[D] COc1c(O)ccc2c1-c1ccc3c(c1/C(=C/c1ccc(O)cc1)O2)C(C)=CC(C)(C)N3
[Q] Number of compounds to sort: 4. Sort criterion: Ki, ascending. Provide the labels, sequenced as the question asks.
[A] D, A, C, B
